assay: Cytotoxicity against human NTUB1 cells after 72 hrs by MTT assay; type: functional, cell-based; conditions: NTUB1, 72 h
endpoint-name: pIC50
Scale: negative log10 of molar concentration, which is what pIC50 denotes.

INSERT INTO measurements (smi, endpoint_name, test_value) VALUES
  ('O=c1c2ccccc2oc2cc(OCCCN3CCCCC3)ccc12', 'pIC50', 4.51);

Consider now this further molecule.
Query string: Could you share which pIC50 value was measured for `O=c1c2ccc(O)cc2oc2cc(OCCCN3CCCCC3)ccc12` ?
Result string: 4.45

----------
biological target: Xanthine dehydrogenase/oxidase (Homo sapiens)
Sequence (P47989 whole entry): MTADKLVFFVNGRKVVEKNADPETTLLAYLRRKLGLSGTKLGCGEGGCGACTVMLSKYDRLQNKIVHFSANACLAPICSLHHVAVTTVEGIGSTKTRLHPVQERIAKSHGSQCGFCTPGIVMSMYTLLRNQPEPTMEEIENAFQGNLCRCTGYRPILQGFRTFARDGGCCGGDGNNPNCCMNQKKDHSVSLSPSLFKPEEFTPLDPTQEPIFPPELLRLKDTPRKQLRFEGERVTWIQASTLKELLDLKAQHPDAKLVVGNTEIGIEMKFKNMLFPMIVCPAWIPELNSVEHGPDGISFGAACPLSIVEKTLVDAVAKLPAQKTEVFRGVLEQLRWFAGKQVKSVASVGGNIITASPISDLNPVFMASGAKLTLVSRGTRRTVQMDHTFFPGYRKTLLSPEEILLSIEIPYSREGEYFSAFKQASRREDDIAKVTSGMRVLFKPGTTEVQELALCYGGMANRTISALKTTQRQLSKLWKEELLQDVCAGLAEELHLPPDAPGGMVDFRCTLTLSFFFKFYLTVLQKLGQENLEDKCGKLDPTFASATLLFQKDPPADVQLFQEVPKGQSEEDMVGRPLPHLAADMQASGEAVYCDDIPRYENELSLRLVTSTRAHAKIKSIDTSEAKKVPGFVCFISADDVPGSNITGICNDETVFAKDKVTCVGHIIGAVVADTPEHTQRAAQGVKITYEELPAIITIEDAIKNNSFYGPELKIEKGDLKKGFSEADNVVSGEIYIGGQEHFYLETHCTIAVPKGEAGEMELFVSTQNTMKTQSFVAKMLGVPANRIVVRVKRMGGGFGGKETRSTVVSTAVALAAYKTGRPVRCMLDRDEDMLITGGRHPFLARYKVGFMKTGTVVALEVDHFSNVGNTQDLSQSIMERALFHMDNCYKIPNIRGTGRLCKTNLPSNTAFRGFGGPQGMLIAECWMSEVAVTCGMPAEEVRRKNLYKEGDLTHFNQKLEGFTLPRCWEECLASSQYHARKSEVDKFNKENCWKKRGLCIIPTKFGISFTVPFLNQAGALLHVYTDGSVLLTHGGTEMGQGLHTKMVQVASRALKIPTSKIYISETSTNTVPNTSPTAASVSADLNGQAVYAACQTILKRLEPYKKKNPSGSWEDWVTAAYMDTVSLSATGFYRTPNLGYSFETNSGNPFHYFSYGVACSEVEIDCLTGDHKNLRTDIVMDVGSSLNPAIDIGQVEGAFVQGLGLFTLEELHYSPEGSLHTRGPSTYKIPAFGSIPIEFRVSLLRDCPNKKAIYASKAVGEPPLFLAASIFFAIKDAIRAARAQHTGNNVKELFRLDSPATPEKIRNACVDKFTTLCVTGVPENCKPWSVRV
Labelling: IC50 reported below 60 µM becomes true (1); at or above becomes false (0).

Some solved entries appear below for comparison.
INSERT INTO assay_data (smi, answer_label) VALUES
  ('CCN(CC)CCCOc1ccc2c(=O)c3ccccc3oc2c1', 'true (1)'),
  ('O=c1c2ccc(O)cc2oc2cc(OCCCN3CCCCC3)ccc12', 'false (0)'),
  ('O=c1c2ccc(O)cc2oc2cc(OCCCN3CCCC3)ccc12', 'false (0)'),
  ('CCN(CC)CCCOc1ccc2c(=O)c3ccc(O)cc3oc2c1', 'true (1)');

Switching to the query record.
Query string: Is IC50 of `O=c1c2ccc(O)cc2oc2cc(OCCCNC3CC3)ccc12` strictly below 60 µM?
Result string: false (0)
